I'd be grateful if you could share measured inhibition at 22.2 µM for these entries.
Target: Bovine Adrenal Estrogen Sulfotransferase (Bos taurus, UniProt P19217)
Construct: The enzyme was isolated from the bovine adrenals; from tissue; host or cells: bovine adrenals; purified by ammonium sulfate fractionation and chromatography on DEAE-cellulose or DEAE-Sephadex A-50
Sequence (P19217 1-295): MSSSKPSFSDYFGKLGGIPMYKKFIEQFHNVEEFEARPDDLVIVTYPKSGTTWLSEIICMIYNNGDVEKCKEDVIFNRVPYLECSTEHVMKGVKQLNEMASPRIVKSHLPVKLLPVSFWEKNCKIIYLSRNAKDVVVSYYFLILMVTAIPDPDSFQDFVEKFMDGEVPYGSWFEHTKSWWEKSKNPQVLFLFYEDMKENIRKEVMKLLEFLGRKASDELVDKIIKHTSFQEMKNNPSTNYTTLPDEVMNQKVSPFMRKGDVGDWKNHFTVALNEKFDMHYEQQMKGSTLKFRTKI
Test: Inhibition of bovine adrenal estrogen sulfotransferase (estrone sulfurylation)
Assay type: biochemical
Settings: pH 8.1, read-out: Fractional Inhibition (Table II)
Report as a plain number; the unit % is understood.

Query: Query for Bovine Adrenal Estrogen Sulfotransferase (Bos taurus, UniProt P19217): what inhibition at 22.2 µM does the record show for `C[C@]12CC[C@@H]3c4ccc(O)cc4C(=O)C[C@H]3[C@@H]1CC[C@@H]2O` ?
Result: 69

Query: Now try C[C@]12CC[C@@H]3c4ccc(O)cc4CC[C@H]3[C@@H]1C[C@@H](O)[C@@H]2O [1,3,5(10)Estratriene-3,16α,17β-triol] .
Result: 66

Query: And what about the molecule C[C@]12CC[C@@H]3c4ccc(O)cc4CC[C@H]3[C@@H]1C[C@H](O)[C@@H]2O [1,3,5(10)Estratriene-3,16β,17β-triol] ?
Result: 72

Query: Continue with `C[C@]12CC[C@@H]3c4cc([N+](=O)[O-])c(O)c([N+](=O)[O-])c4CC[C@H]3[C@@H]1CC[C@@H]2O`
Result: 72

From: patent US4340602A
